system: HCV GT 2a-J6 replicon; test: HCV replicon assay, GT2a chimeric replicon expressing NS5A from GT2a strain J6; type: cell-based; settings: Hepatitis C virus, read-out: EC50 (nM) 2a-J6
MEASUREMENT TYPE: EC50
Mention the unit after the number when you answer.

As a guide, the following entries are already answered.
INSERT INTO measurements (compound, assay_target, measurement_type, obs_value) VALUES
  ('COC(=O)N[C@H](C(=O)N1C[C@]2(CCCCO2)C[C@H]1c1ncc(-c2ccc(-c3ccc4c(ccc5nc([C@@H]6CCCN6C(=O)[C@@H](NC(=O)OC)C(C)C)[nH]c54)c3)cc2)[nH]1)C(C)C', 'HCV GT 2a-J6 replicon', 'EC50', '27 nM'),
  ('COC(=O)N[C@H](C(=O)N1C[C@@]2(CCCCO2)C[C@H]1c1ncc(-c2ccc(-c3ccc4c(ccc5nc([C@@H]6CCCN6C(=O)[C@@H](NC(=O)OC)C(C)C)[nH]c54)c3)cc2)[nH]1)C(C)C', 'HCV GT 2a-J6 replicon', 'EC50', '267 nM'),
  ('COC(=O)N[C@H](C(=O)N1CC2(CCOCC2)C[C@H]1c1ncc(-c2ccc(-c3ccc4c(ccc5nc([C@@H]6CCCN6C(=O)[C@@H](NC(=O)OC)C(C)C)[nH]c54)c3)cc2)[nH]1)C(C)C [drawing 234]', 'HCV GT 2a-J6 replicon', 'EC50', '32 nM'),
  ('COC(=O)N[C@H](C(=O)N1C[C@]2(CCCOC2)C[C@H]1c1ncc(-c2ccc(-c3ccc4c(ccc5nc([C@@H]6CCCN6C(=O)[C@@H](NC(=O)OC)C(C)C)[nH]c54)c3)cc2)[nH]1)C(C)C [drawing 233]', 'HCV GT 2a-J6 replicon', 'EC50', '0.6 nM');

Turning now to a further record.
Returns the measured EC50 for the input compound. Input: COC(=O)N[C@H](C(=O)N1C[C@@]2(CCCOC2)C[C@H]1c1ncc(-c2ccc(-c3ccc4c(ccc5nc([C@@H]6CCCN6C(=O)[C@@H](NC(=O)OC)C(C)C)[nH]c54)c3)cc2)[nH]1)C(C)C [drawing 235]
50 nM
